# study.system: human CD47 (hCD47) (human, UniProt Q08722 19-139, limits assumed)
# Sequence (Q08722 19-139 limits assumed): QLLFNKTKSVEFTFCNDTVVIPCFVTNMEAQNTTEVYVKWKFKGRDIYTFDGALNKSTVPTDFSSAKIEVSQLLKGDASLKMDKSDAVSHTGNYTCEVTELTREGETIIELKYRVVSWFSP
# method.notes: blocking ELISA, coated hCD47 ECD Fc, supernatant + biotin-SIRPα ECD His
measured.attribute: Blocking ability (%)
// note: answer is a bare numeric in %

4RP6-1-10A (designed binder, tested as bacterial supernatant; also called S-16; hSIRPα-mt13 (IgV domain)) hSIRPα IgV domain mutant: EEELQVIQPDKSVSVAAGESAILHCTVTSLLPVGPIQWFRGAGPARELIYNQKDFLFPRVTTVSESTKRENRDFSISISNITPADAGTYYCVKFRKGSPDTEFKSGAGTELSVRAKPS yielded Blocking ability (%) of 80.1

2R-1-10B (designed binder, tested as bacterial supernatant; also called hSIRPα-mt6 (IgV domain)) hSIRPα IgV domain mutant: EEELQVIQPDKSVSVAAGESAILHCTVTSLIPVGPIQWFRGAGPARELIYNQKNLIFPRVTTVSESGKRENMDFSISISNITPADAGTYYCVKFRKGSPDTEFKSGAGTELSVRAKPS yielded Blocking ability (%) of 27.2

2R-1-7B (designed binder, tested as bacterial supernatant; also called hSIRPα-mt7 (IgV domain)) hSIRPα IgV domain mutant: EEELQVIQPDKSVSVAAGESAILHCIVTSLIPVGPIQWFRGAGPARELIYNQKILTFPRVTTVSESTKRENYDFSISISNITPADAGTYYCVKFRKGSPDTEFKSGAGTELSVRAKPS yielded Blocking ability (%) of 23.3

2R-1-4B (designed binder, tested as bacterial supernatant; also called hSIRPα-mt14 (IgV domain)) hSIRPα IgV domain mutant: EEELQVIQPDKSVSVAAGESAILHCTVTSLAPVGPIQWFRGAGPARELIYNQKLDSFPRVTTVSESTKRESMDFSISISNITPADAGTYYCVKFRKGSPDTEFKSGAGTELSVRAKPS yielded Blocking ability (%) of 27.9

4RP13-3-7B (designed binder, tested as bacterial supernatant; also called S-28; hSIRPα-mt10 (IgV domain)) hSIRPα IgV domain mutant: EEELQVIQPDKSVSVAAGESAILTCTVTSLYPVGPIQWFRGAGPARELIYNQKRQTFPRVTTVSESTKRFNMDFSISISNITPADAGTYYCVKFRKGSPDTEFKSGAGTELSVRAKPS yielded Blocking ability (%) of 92.4

4RP13-5-6G (designed binder, tested as bacterial supernatant; also called hSIRPα-mt15 (IgV domain)) hSIRPα IgV domain mutant: EEELQVIQPDKSVSVAAGESAILRCTVTSLTPVGPIQWFRGAGPARELIYNQKAKQFPRVTTVSESTKRENMIFSISISNITPADAGTYYCVKFRKGSPDTEFKSGAGTELSVRAKPS yielded Blocking ability (%) of 46.3
